So I've got a bunch of binders here, and I need their % positive values.
Molecular target: wild-type EGFR expressed on cells (human), P00533
Assay: flow cytometry, F98-EGFRwt cells
Conditions: remark: other sources report otherwise
Give bare numbers, in %.

14C11 (antibody, V domains shown) VH: QVTLKESGPVLVKPTETLTLTCTVSGFSLNNARMGVSWIRQPPGKALEWFAHIFSTDEKSFRTSLRSRLTLSKDTSKSQVVLTMTNMDPVDTATYYCARDSSNYEGYFDYWGQGILVTVSS VL: EIVMTQSPATLSVSPGERATLSCRASQSVSNNLAWYQQKPGQAPRLLIYGASTRATGVPARFSGSDSGTEFSLTISSLQSEDFAVYFCQQYKDWPFTFGPGTKVEIK | 1.3

I would be grateful if you could provide % positive for each of the following entries.
1. 20B9 (antibody, V domains shown) VH: QVTLKESGPVLVKPTETLTLTCTVSGFSLSNARMGVSWIRQPPGKALEWLGHIFSTDEKSYSTSLRGRITISKDTSRGLVVLTLTNMDPVDTATYYCARDSSNYEGYFDFWGPGFLVTVSS VL: EIVMTQSPATLSVSPGERATLSCRVSQSIGANLAWYQQKFGQAPRLLIYGASTRATGIPVRFSGGGSGTEFTLTISSLQSEDFAIYSCQQYIYWPFTFGPGTTVDIK
2. 19A9 (antibody, V domains shown) VH: QVTLEESGPVLVKPTETLTLTCTVSGFSLSNARMGVSWIRQPPGKAPEWFAHIFSTDEKSLRLSLRSRLTLSKDTSKSQVVLTMTNMDPVDTATYYCARDSSNYEGYFDYWGQGTLVTVSS VL: EVVMTQSPATLSVSPGERATLSCRASQSVNRNLAWYQQKPGQAPRLLIFGTSTRATGIPARFSGSGSGTEFTLTIDSLQSEHSGLYYCQQYNDWPFTFGPGTKVDIK

1.8
1.6

// provenance: patent US20190144550A1
